IC50 by entry:
target: NLRP3 (Homo sapiens, UniProt Q96P20); assay: Human whole blood IL1β release assay; type: cell-based; set-up: Plate out 80 μl of whole blood containing 1 μg/ml of LPS; from tissue; host or cells: human whole blood from healthy donors, LPS-primed, nigericin-stimulated; settings: LPS 1 μg/ml, nigericin 10 μM, IL-1β AlphaLisa, read-out: HWB IC50
Sequence (Q96P20 whole entry): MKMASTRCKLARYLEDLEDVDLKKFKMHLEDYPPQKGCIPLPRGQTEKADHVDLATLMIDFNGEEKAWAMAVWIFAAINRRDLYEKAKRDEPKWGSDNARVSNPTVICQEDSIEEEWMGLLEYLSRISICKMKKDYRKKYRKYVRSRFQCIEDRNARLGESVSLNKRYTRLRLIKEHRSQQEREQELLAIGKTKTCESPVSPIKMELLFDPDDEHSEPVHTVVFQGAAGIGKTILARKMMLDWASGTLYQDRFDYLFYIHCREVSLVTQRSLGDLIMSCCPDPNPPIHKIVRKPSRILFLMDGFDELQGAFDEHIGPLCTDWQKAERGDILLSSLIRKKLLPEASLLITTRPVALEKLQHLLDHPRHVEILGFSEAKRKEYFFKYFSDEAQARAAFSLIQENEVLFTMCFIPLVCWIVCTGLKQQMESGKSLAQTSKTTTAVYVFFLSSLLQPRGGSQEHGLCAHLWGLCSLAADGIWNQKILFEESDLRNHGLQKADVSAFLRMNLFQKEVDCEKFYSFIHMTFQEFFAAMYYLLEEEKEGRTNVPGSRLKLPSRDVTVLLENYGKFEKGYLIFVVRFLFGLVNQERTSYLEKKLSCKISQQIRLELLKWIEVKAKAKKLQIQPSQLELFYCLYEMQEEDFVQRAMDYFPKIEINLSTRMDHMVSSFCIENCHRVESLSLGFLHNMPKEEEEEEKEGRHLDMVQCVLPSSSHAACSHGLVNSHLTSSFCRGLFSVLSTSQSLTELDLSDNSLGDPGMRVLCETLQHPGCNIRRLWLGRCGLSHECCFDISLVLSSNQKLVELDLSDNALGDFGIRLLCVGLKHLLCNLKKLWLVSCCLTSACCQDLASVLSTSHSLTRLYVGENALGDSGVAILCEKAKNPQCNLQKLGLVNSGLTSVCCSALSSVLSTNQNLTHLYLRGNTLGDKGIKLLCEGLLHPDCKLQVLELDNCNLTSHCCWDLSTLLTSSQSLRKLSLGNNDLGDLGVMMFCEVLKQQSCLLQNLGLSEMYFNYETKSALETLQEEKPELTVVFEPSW

Before answering, review these 3 worked examples.
Any idea what IC50 was measured for `COC1(c2cc(S(=O)(=O)NC(=O)Nc3c4c(cc5c3CCC5)CCC4)nn2C(C)(C)C)COC1` ?
1600 to 3200 nM

Record: `CC(C)c1cc(Cl)cc(C(C)C)c1NC(=O)NS(=O)(=O)c1ccn(C2CCOCC2)n1`
3200 to 10000 nM

Record: CC(O)C(C)n1ccc(S(=O)(=O)NC(=O)Nc2c3c(cc4c2CCC4)CCC3)n1 (racemic) [Example 23]
< 400 nM

Continuing:
Any idea what IC50 was measured for `CC[C@@H](O)Cn1ccc(S(=O)(=O)NC(=O)Nc2c3c(cc4c2CCC4)CCC3)n1` ?
800 to 1600 nM

Record: `CC(C)c1cc(Cl)cc(C(C)C)c1NC(=O)NS(=O)(=O)c1cc(C(=O)N(C)CCO)n(C)n1`
800 to 1600 nM

Record: `Cn1nc(S(=O)(=O)NC(=O)Nc2c3c(cc4c2CCC4)CCC3)cc1CC(C)(C)O`
800 to 1600 nM

Record: `COC(C)(C)Cn1ccc(S(=O)(=O)NC(=O)Nc2c(C(C)C)cc(F)cc2C(C)C)n1`
3200 to 10000 nM

Record: `CC(C)n1nc(S(=O)(=O)NC(=O)Nc2c3c(cc4c2CCC4)CCC3)cc1C1(O)COC1`
400 to 800 nM

* * *

target: NLRP3 (Homo sapiens); test: Human whole blood IL1β release assay; type: cell-based; design: Plate out 80 μl of whole blood containing 1 μg/ml of LPS; from tissue; host or cells: human whole blood from healthy donors, LPS-primed, nigericin-stimulated; conditions: LPS 1 μg/ml, nigericin 10 μM, IL-1β AlphaLisa, read-out: HWB IC50
IC50 by entry:

Any idea what IC50 was measured for `C[C@H](O)Cn1ccc(S(=O)(=O)NC(=O)Nc2c3c(cc4c2CCC4)CCC3)n1` ?
< 400 nM

Continuing:
Any idea what IC50 was measured for `CC[C@H](O)Cn1ccc(S(=O)(=O)NC(=O)Nc2c3c(cc4c2CCC4)CCC3)n1` ?
800 to 1600 nM

Record: `Cn1nc(S(=O)(=O)NC(=O)Nc2c3c(cc4c2CCC4)CCC3)cc1C1(O)CCOCC1`
800 to 1600 nM

Record: `COc1cc(-c2ccc3c(c2NC(=O)NS(=O)(=O)c2ccn(C(C)(C)CN4CC(OC)C4)n2)CCC3)ccn1`
< 400 nM

Record: `CN(CCCO)C(=O)c1cc(S(=O)(=O)NC(=O)Nc2c3c(cc4c2CCC4)CCC3)nn1C`
1600 to 3200 nM

Record: `COc1cc(-c2ccc3c(c2NC(=O)NS(=O)(=O)c2cc(C4(OC)COC4)n(C)n2)CCC3)ccn1`
< 400 nM

Record: `CC(C)(O)Cn1ccc(S(=O)(=O)NC(=O)Nc2c3c(c(F)c4c2CCC4)CCC3)n1`
400 to 800 nM
